# Tested on: Pigweed, Redroot
# method.description: Test A postemergence
# Format: in vivo, Amaranthus retroflexus
# measurement.conditions: 1000 g ai/ha, Postemergence; 0 to 100 scale
property.name: Plant response rating, Pigweed, Redroot

C[C@H]1CN(C(=O)c2cccc(-n3cnnn3)c2)c2cccc(Cl)c2O1 :: 30
CC1CN(C(=O)c2cccc(-n3cncn3)c2)c2ccc(F)cc2O1 (stereo not drawn) :: 0
CCC1CN(C(=O)c2ccnc(-n3cncn3)c2)c2cccc(I)c2O1 (stereo not drawn) :: 0
CC1CN(C(=O)c2cccc(-n3cncn3)c2)c2cccc(Br)c2O1 (stereo not drawn) :: 40
CC1CN(C(=O)c2cccc(-n3cncn3)c2)c2cc(F)ccc2O1 (stereo not drawn) :: 0

Field: next molecule
Q) What is its Plant response rating, Pigweed, Redroot for Pigweed, Redroot? Entry: O=C(c1cccc(-n2cncn2)c1)N1CC(C2CC2)Oc2c(Cl)cccc21 (stereo not drawn)
A) 60

---

# System: ryegrass, Italian
# method.description: Test A postemergence
# Assay type: in vivo, Lolium multiflorum
# measurement.conditions: 125 g ai/ha, postemergence, 10 days; 0 to 100 scale, 0 no effect, 100 complete control
# Source text: […]
Each entry below carries its reported Ryegrass, Italian plant response rating.
Give only the figure.

CC(C)Cc1ncn(-c2cccc(C(=O)N3C[C@H](C)Oc4c(Cl)cccc43)c2)n1 :: 10

Q) Fill blank: measured Ryegrass, Italian plant response rating of the molecule `Cc1ccc(-n2cnc(CO)n2)cc1C(=O)N1C[C@H](C)Oc2c(Cl)cccc21` is ____.
A) 50

Q) Query: Ryegrass, Italian plant response rating; subject: `CCOc1ccc(-n2cnc(C(C)C)n2)cc1C(=O)N1C[C@H](C)Oc2c(Cl)cccc21`
A) 20

Q) # Ryegrass, Italian plant response rating lookup, item `Cc1cccc2c1O[C@@H](C)CN2C(=O)c1cccc(-n2cnn(C(C)C)c2=O)c1`
A) 10

Q) What does the record list as Ryegrass, Italian plant response rating for `Cc1ccc(-n2cnc(C(C)(C)O)n2)cc1C(=O)N1C[C@H](C)Oc2c(Cl)cccc21` ?
A) 80

Q) Need Ryegrass, Italian plant response rating of `C[C@H]1CN(C(=O)c2cccc(-n3cnc(Br)n3)c2)c2cccc(Cl)c2O1` , thanks.
A) 10

---

# System: corn
# method.description: Test A postemergence
# Assay type: in vivo, Zea mays
# measurement.conditions: 500 g ai/ha, Postemergence; 0 to 100 scale
// Plant response rating, Corn lookup, one value per entry
Field format: numeric only.

CC1CN(C(=O)c2cc(-n3cncn3)ccc2F)c2cccc(Cl)c2O1 (stereo not shown) :: 70

Q) Form field: Plant response rating, Corn recorded for `C[C@H]1CN(C(=O)c2cccc(-n3cncn3)c2)c2cccc(C(F)(F)F)c2O1` with corn (enter value)
A) 60

Q) Provide value of Plant response rating, Corn for this record tested with corn: `Cc1cccc2c1O[C@@H](C)CN2C(=O)c1cc(-n2cncn2)ccc1F`
A) 60

Q) Find the measured Plant response rating, Corn: item CC1CN(C(=O)c2cccc(-n3cncn3)c2)c2c(F)cccc2O1 (stereo not shown) , target or system corn.
A) 20

Q) API: value(readout= Plant response rating, Corn, system= corn, query= `Cc1cccc2c1O[C@@H](C)CN2C(=O)c1cccc(-n2cnc(C3CC3)n2)c1` )
A) 40

Q) Give corn Plant response rating, Corn for `Cc1cccc2c1O[C@@H](C)CN2C(=O)c1cccc(-n2cnc(C(C)C)n2)c1`
A) 80

Q) # returns recorded Plant response rating, Corn (system: corn) for CC1CN(C(=O)c2cccc(-n3cncn3)c2)c2cc(F)cc(F)c2O1 (stereo not shown)
A) 20

---

# System: ryegrass, Italian
# method.description: Test C preemergence
# Type: in vivo, Lolium multiflorum
# measurement.conditions: Preemergence, 125 g ai/ha; 0 to 100 scale, 0 no effect, 100 complete control
So basically: is Plant response rating, Ryegrass, Italian under 80? Then Yes. Not under? Then No.

Worked examples follow.
Cc1ccc(-n2cnc(C(C)(C)C)n2)cc1C(=O)N1CC(C(F)(F)F)Oc2c(Cl)cccc21 (stereo not drawn) :: No
COC[C@H]1CN(C(=O)c2cc(-n3cnc(C4CCC4)n3)cc3c2OCCO3)c2cccc(Cl)c2O1 :: Yes
Cc1ccc(-n2cnc(CC#N)n2)cc1C(=O)N1C[C@H](C)Oc2c(Cl)cccc21 :: Yes

Continue with the next molecule.
Q) Find out if reported Plant response rating, Ryegrass, Italian for CCc1ncn(-c2cc(C(=O)N3CC(C(F)(F)F)Oc4c(C)cccc43)ccn2)n1 (stereo not drawn) is less than 80
A) No

---

Plant response rating, Galium for assorted compounds
# Tested on: galium
# method.description: Test C postemergence
# Assay type: in vivo, Galium aparine
# measurement.conditions: Postemergence, 500 g ai/ha, 10 days, visual 0 to 100 scale (0 no effect, 100 complete control)
Answer with a bare number; do not write a unit.

Would you please look over these solved cases?
Cc1cc(-n2cnc(C(C)C)n2)cc(C(=O)N2C[C@H](C)Oc3c(Cl)cccc32)c1Cl [Compound 220] :: 100
C[C@H]1CN(C(=O)c2cc(-n3cncn3)cc3c2OCCO3)c2cccc(Cl)c2O1 [Compound 153] :: 100
COc1ccc(-n2cnc(C(C)C)n2)cc1C(=O)N1C[C@H](C)Oc2c1cccc2C(F)(F)F [Compound 171] :: 100
COc1c(C)cc(-n2cnc(C(C)C)n2)cc1C(=O)N1C[C@H](C)Oc2c(Cl)cccc21 [Compound 260] :: 100
Cc1ccc(-n2cnc(C3(C)CC3)n2)cc1C(=O)N1C[C@H](C)Oc2c(Cl)cccc21 [Compound 252] :: 100

Q) What value of Plant response rating, Galium has been reported for the following compound? CC(C)c1ncn(-c2ccc(S(=O)(=O)C(F)(F)F)c(C(=O)N3C[C@H](C)Oc4c(Cl)cccc43)c2)n1 [Compound 229]
A) 0

---

Plant response rating, Ragweed values by entry
# Test system: ragweed
# method.description: Test A postemergence
# Format: in vivo, Ambrosia artemisiifolia
# measurement.conditions: 125 g ai/ha, postemergence, 10 days, visual injury, 0 to 100 scale (0 no effect, 100 complete control)
I only need the number, thanks.

CC1CN(C(=O)c2cccc(-n3cncn3)c2)c2cc(F)cc(F)c2O1 (stereo not drawn) :: 0

Q) Given the compound `Cc1cccc2c1O[C@@H](C)CN2C(=O)c1cccc(-n2cncn2)c1F` , what is its reported Plant response rating, Ragweed?
A) 0

Q) Using the record for `Cc1cccc2c1O[C@@H](C)CN2C(=O)c1cccc(-n2ncnc2C(C)C)c1` , report its Plant response rating, Ragweed.
A) 0

Q) Any idea what Plant response rating, Ragweed was measured for `Cc1cccc2c1O[C@@H](C)CN2C(=O)c1ccc(F)c(-n2cncn2)c1` ?
A) 0

Q) Consider the compound shown here: `C[C@H]1CN(C(=O)c2cccc(-n3cncn3)c2)c2cccc(C(F)(F)F)c2O1` What is its recorded Plant response rating, Ragweed?
A) 0

Q) What value of Plant response rating, Ragweed has been reported for the following compound? O=C(c1cccc(-n2cncn2)c1)N1CC(C(F)(F)F)Oc2c(Cl)cccc21 (stereo not drawn)
A) 40

---

# Test system: blackgrass
# method.description: Test A postemergence
# Type: in vivo, Alopecurus myosuroides
# measurement.conditions: 500 g ai/ha, Postemergence; 0 to 100 scale
# Plant response rating, Blackgrass values compiled below
Lab note: record the figure alone, no unit after it.

Example results:
Cc1ncn(-c2cccc(C(=O)N3C[C@H](C)Oc4c(C)cccc43)c2)n1 :: 50
Cc1ccc(-n2cncn2)cc1C(=O)N1C[C@H](C)Oc2c(C)cccc21 :: 80
CCCc1ncn(-c2cccc(C(=O)N3C[C@H](C)Oc4c(C)cccc43)c2)n1 :: 80
O=C(c1cccc(-n2cncn2)c1)N1CC(C(F)(F)F)Oc2c(Cl)cccc21 (centres unmarked) :: 80
CC1CN(C(=O)c2cccc(-n3cncn3)c2)c2cc(F)cc(F)c2O1 (centres unmarked) :: 60

Q) Data request, read-out Plant response rating, Blackgrass, for `Cc1cccc2c1O[C@@H](C)CN2C(=O)c1cccc(-n2cnc(Cl)n2)c1`
A) 60

Q) Tell me the measured Plant response rating, Blackgrass of `C[C@H]1CN(C(=O)c2cccc(-n3cncn3)c2)c2cccc(C#N)c2O1` , please.
A) 70

Q) Any idea what Plant response rating, Blackgrass was measured for `C[C@H]1CN(C(=O)c2cccc(-n3cncn3)c2)c2cccc(OC(F)(F)F)c2O1` ?
A) 30

---

# Test system: foxtail, giant
# method.description: Test A postemergence
# Type: in vivo, Setaria faberi
# measurement.conditions: 500 g ai/ha, postemergence, 10 days, visual injury, 0 to 100 scale (0 no effect, 100 complete control)
Each entry gets N if its Plant response rating, Foxtail, Giant stays under 90, and Y if its Plant response rating, Foxtail, Giant is 90 or above.

Examples from the recorded data:
C#CCOc1ccc(-n2cnc(C(C)C)n2)cc1C(=O)N1C[C@H](C)Oc2c(Cl)cccc21 [Compound 107] :: Y
Cc1nc(C)n(-c2cccc(C(=O)N3C[C@H](C)Oc4c(Cl)cccc43)c2)n1 [Compound 142] :: N
CC(C)c1ncn(-c2cc(C(=O)N3C[C@H](C)Oc4c(Cl)cccc43)c3ccccc3c2)n1 [Compound 146] :: N

Continue with the next molecule.
Q) hey, is Plant response rating, Foxtail, Giant for this one >= 90? CC(C)c1ncn(-c2ccc(OCC(F)(F)F)c(C(=O)N3C[C@H](C)Oc4c(Cl)cccc43)c2)n1 [Compound 141]
A) Y
